Test system: Murine T-cell line
ASSAY EXPLANATION: Immunosuppressive activity in Balb/c mouse T cells assessed as inhibition of ConA-induced cell proliferation at 1 uM after 48 hrs by MTT assay relative to control
QUANTITY NAME: inhibition at 1 µM (%)
// note: answer is a bare numeric in %

Task: Param item = Cc1cc(OCc2ccccc2)c(C)c2c1CC[C@H]1[C@H](C)C(=O)O[C@@H]21 ; retrieve measured inhibition at 1 µM.
Output: 58

Task: Param item = CCCCCCCC(=O)Oc1cc(C)c2c(c1C)[C@@H]1OC(=O)[C@@H](C)[C@@H]1CC2 ; retrieve measured inhibition at 1 µM.
Output: 50.4

Task: Param item = CC1=C2[C@H]3OC(=O)[C@@H](C)[C@@H]3CC[C@@]2(C)C=CC1=O [SANTONIN] ; retrieve measured inhibition at 1 µM.
Output: 35.4

Task: Param item = Cc1cc(OC(=O)C(C)(C)C)c(C)c2c1CC[C@H]1[C@H](C)C(=O)O[C@@H]21 ; retrieve measured inhibition at 1 µM.
Output: 35.1

Task: Param item = CC(=O)Oc1cc(C)c2c(c1C)[C@@H]1OC(=O)[C@@H](C)[C@@H]1CC2 ; retrieve measured inhibition at 1 µM.
Output: 39.7

Task: Param item = Cc1cc(OC(=O)C(C)C)c(C)c2c1CC[C@H]1[C@H](C)C(=O)O[C@@H]21 ; retrieve measured inhibition at 1 µM.
Output: 53.3

Task: Param item = COc1ccc(NC(=O)CCC(=O)Oc2cc(C)c3c(c2C)[C@@H]2OC(=O)[C@@H](C)[C@@H]2CC3)cc1 ; retrieve measured inhibition at 1 µM.
Output: 1

Task: Param item = Cc1cc(O)c(C)c2c1CC[C@H]1[C@H](C)C(=O)O[C@@H]21 ; retrieve measured inhibition at 1 µM.
Output: 22.1

###

Tested on: Murine T-cell line
ASSAY EXPLANATION: Cytotoxicity against Balb/c mouse T cells assessed as decrease in cell survival at 1 uM by MTT assay
Type: cell-based
QUANTITY NAME: Activity

Recorded results for 10 compounds are shown here.
- LINE NOTATION: "CCCCOc1cc(C)c2c(c1C)[C@@H]1OC(=O)[C@@H](C)[C@@H]1CC2"
  ENDPOINT RESULT: "Non-Toxic"
- LINE NOTATION: "CCCCC(=O)Oc1cc(C)c2c(c1C)[C@@H]1OC(=O)[C@@H](C)[C@@H]1CC2"
  ENDPOINT RESULT: "Non-Toxic"
- LINE NOTATION: "Cc1cc(OC(=O)C(C)C)c(C)c2c1CC[C@H]1[C@H](C)C(=O)O[C@@H]21"
  ENDPOINT RESULT: "Non-Toxic"
- LINE NOTATION: "Cc1cc(OC(=O)CCC(=O)Nc2ccccc2Cl)c(C)c2c1CC[C@H]1[C@H](C)C(=O)O[C@@H]21"
  ENDPOINT RESULT: "Non-Toxic"
- LINE NOTATION: "Cc1cc(OC(=O)CCC(=O)O)c(C)c2c1CC[C@H]1[C@H](C)C(=O)O[C@@H]21"
  ENDPOINT RESULT: "Non-Toxic"
- LINE NOTATION: "CCCOc1cc(C)c2c(c1C)[C@@H]1OC(=O)[C@@H](C)[C@@H]1CC2"
  ENDPOINT RESULT: "Non-Toxic"
- LINE NOTATION: "Cc1cc(OC(=O)C(C)(C)C)c(C)c2c1CC[C@H]1[C@H](C)C(=O)O[C@@H]21"
  ENDPOINT RESULT: "Non-Toxic"
- LINE NOTATION: "Cc1cc(OCc2ccccc2)c(C)c2c1CC[C@H]1[C@H](C)C(=O)O[C@@H]21"
  ENDPOINT RESULT: "Non-Toxic"
- LINE NOTATION: "COc1ccc(NC(=O)CCC(=O)Oc2cc(C)c3c(c2C)[C@@H]2OC(=O)[C@@H](C)[C@@H]2CC3)cc1"
  ENDPOINT RESULT: "Non-Toxic"
- LINE NOTATION: "CCCC(=O)Oc1cc(C)c2c(c1C)[C@@H]1OC(=O)[C@@H](C)[C@@H]1CC2"
  ENDPOINT RESULT: "Non-Toxic"

Task: Param item = CCOc1cc(C)c2c(c1C)[C@@H]1OC(=O)[C@@H](C)[C@@H]1CC2 ; retrieve measured Activity.
Output: Non-Toxic

Task: Param item = COc1cc(C)c2c(c1C)[C@@H]1OC(=O)[C@@H](C)[C@@H]1CC2 ; retrieve measured Activity.
Output: Toxic

Task: Param item = Cc1cc(OC(=O)CCC(=O)Nc2ccccc2F)c(C)c2c1CC[C@H]1[C@H](C)C(=O)O[C@@H]21 ; retrieve measured Activity.
Output: Non-Toxic

Task: Param item = CCCCCOc1cc(C)c2c(c1C)[C@@H]1OC(=O)[C@@H](C)[C@@H]1CC2 ; retrieve measured Activity.
Output: Toxic

Task: Param item = CCC(=O)Oc1cc(C)c2c(c1C)[C@@H]1OC(=O)[C@@H](C)[C@@H]1CC2 ; retrieve measured Activity.
Output: Toxic

These data points were gathered from ChEMBL document CHEMBL4138056.
